Biological target: human GPR68 (Homo sapiens)
Construct: encoding full-length human GPR68 (uniprot ID: Q15743); expressed in transfected cells; host or cells: HEK293T
Assay: GPR68 Biochemical Assay (Promega GloSensor cAMP assay, GPR68 antagonism)
Type: cell-based
Settings: HEK293T cells transiently expressing hGPR68, antagonism of pH 5.5 stimulated cAMP, 15 min, read-out: hGPR68 IC50
Method: GPR68 antagonism was determined using the Promega GloSensor™ CAMP assay (F. I. Wang et al., Methods 2021, S1046-2023 (21) 00249-8). […] Cell density was determined by automated cell counting (Countess, Invitrogen) and adjusted to 6×10^6 cells/20 mL and transferred to 15 cm dishes (Thermo Fisher, Cat 130183) for overnight incubation at 37° C. and 5% CO2. […]
outcome-measure: IC50

**Q:** Note IC50 for the compound shown: COCc1nn2c(C(=O)NC3COc4c(F)cc(F)cc43)ccnc2c1C(N)=O (stereo not shown)
**A:** < 50 nM

**Q:** Note IC50 for the compound shown: `COCc1nn2c(C(=O)N[C@H]3COc4c3ccc(F)c4F)ccnc2c1C(N)=O`
**A:** < 50 nM

**Q:** Note IC50 for the compound shown: `CN(C)c1nn2c(C(=O)NC3CC(F)(F)C3)ccnc2c1C(N)=O`
**A:** 500 to 5000 nM

**Q:** Note IC50 for the compound shown: `COCc1nn2c(C(=O)N[C@@H]3CCS(=O)(=O)c4ccccc43)ccnc2c1C(N)=O`
**A:** < 50 nM

###

Target: human GPR68 (Homo sapiens)
Construct: encoding full-length human GPR68 (uniprot ID: Q15743); expressed in transfected cells; host or cells: HEK293T
Assay: GPR68 Biochemical Assay (Promega GloSensor cAMP assay, GPR68 antagonism)
Format: cell-based
Details: HEK293T cells transiently expressing hGPR68, antagonism of pH 5.5 stimulated cAMP, 15 min, read-out: hGPR68 IC50
pIC50: −log10 of the molar value.
As shown below, each of these compounds has a reported pIC50 value.

Some compounds with known pIC50 results, for comparison:
1) Cc1nn2c(C(=O)NC3COc4ccccc4C3)ccnc2c1C(N)=O (stereo not shown) ... 5.30 to 6.30
2) COCc1nc2c(C(=O)NC3Cc4ccccc43)ccnn2c1C(N)=O (stereo not shown) ... > 7.30

**Q:** Note pIC50 for the compound shown: `CSCc1nn2c(C(=O)N[C@H]3C[C@@H](OC(F)(F)F)C3)ccnc2c1C(N)=O`
**A:** > 7.30

**Q:** Note pIC50 for the compound shown: `CNC(=O)c1c(COC)nn2c(C(=O)N[C@H]3C[C@@H](OC(F)(F)F)C3)ccnc12`
**A:** 5.30 to 6.30

###

Target: human GPR68 (Homo sapiens, UniProt Q15743)
Construct: encoding full-length human GPR68 (uniprot ID: Q15743); expressed in transfected cells; host or cells: HEK293T
Sequence (Q15743 whole entry): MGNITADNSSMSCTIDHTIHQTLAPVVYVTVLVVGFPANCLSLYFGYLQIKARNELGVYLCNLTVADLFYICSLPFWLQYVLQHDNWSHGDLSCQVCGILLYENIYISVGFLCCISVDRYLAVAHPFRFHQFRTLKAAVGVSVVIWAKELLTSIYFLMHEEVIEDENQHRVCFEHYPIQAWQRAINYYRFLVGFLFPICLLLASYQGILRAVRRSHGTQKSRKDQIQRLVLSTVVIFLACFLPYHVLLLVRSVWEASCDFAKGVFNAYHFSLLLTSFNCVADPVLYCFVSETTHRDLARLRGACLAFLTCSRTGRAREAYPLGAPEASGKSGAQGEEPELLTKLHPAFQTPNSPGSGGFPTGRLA
Assay: GPR68 Biochemical Assay (Promega GloSensor cAMP assay, GPR68 antagonism)
Type: cell-based
Settings: HEK293T cells transiently expressing hGPR68, antagonism of pH 5.5 stimulated cAMP, 15 min, read-out: hGPR68 IC50
pIC50: −log10 of the molar value.
outcome-measure: pIC50

Some molecules with known pIC50 results, for comparison:
1. COCc1nn2c(C(=O)N[C@H]3CC[C@@H](OC(F)(F)F)CC3)ccnc2c1C(N)=O ... 6.30 to 7.30
2. COCc1nn2c(C(=O)Nc3cc(C)cc(C)n3)ccnc2c1C(N)=O ... > 7.30
3. COCc1nn2c(C(=O)N3Cc4ccccc4C3)ccnc2c1C(N)=O ... 5.30 to 6.30
4. COCc1nn2c(C(=O)NC3CC(F)(F)c4ccccc43)ccnc2c1C(N)=O (centres unmarked) [Compound 129] ... > 7.30
5. COCc1nn2c(C(=O)N[C@H]3COc4cc(F)ccc43)ccnc2c1C(N)=O ... > 7.30

**Q:** Note pIC50 for the molecule shown: `CS(=O)(=O)Cc1nn2c(C(=O)NC3Cc4ccccc4C3)ccnc2c1C(N)=O`
**A:** 6.30 to 7.30

**Q:** Note pIC50 for the molecule shown: `COCc1nn2c(C(=O)N3CCN(c4ncccc4C(F)(F)F)CC3)ccnc2c1C(N)=O`
**A:** 4.00 to 4.30

**Q:** Note pIC50 for the molecule shown: `NC(=O)c1cnn2c(C(=O)NCC3CCC(F)(F)CC3)ccnc12`
**A:** 5.30 to 6.30
